# SUBJECT_OF_TEST: acetylcholinesterase (AChE) (Homo sapiens)
# Sequence (P22303 32-614): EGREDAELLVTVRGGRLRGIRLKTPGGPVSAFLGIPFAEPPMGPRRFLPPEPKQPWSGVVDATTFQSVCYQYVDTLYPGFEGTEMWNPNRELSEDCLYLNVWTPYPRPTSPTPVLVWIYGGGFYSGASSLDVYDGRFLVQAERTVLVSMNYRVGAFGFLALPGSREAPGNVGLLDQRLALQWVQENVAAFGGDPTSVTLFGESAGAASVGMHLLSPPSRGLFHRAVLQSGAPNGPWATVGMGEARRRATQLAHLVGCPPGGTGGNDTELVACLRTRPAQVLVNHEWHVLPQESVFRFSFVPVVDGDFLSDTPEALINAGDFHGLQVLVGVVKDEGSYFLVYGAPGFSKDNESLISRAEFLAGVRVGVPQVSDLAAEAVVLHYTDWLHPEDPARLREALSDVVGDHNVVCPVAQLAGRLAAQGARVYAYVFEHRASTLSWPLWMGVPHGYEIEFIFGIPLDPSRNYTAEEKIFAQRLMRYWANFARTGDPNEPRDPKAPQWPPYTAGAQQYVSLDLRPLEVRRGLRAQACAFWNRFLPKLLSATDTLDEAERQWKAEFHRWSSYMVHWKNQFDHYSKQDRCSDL
# TEST_DESCRIPTION: biochemical
# Assay type: biochemical
Could you mark each record Fulfilled if its SI BChE/AChE falls strictly under 0.8, and Not fulfilled if it equals or exceeds it?

Determine whether this molecule shows SI BChE/AChE lower than 0.8 (ties excluded): O=c1c(O)c(-c2ccc(Cl)cc2)oc2cc(Cl)c(I)cc12 [Compound 3g]
Fulfilled

Determine whether this molecule shows SI BChE/AChE lower than 0.8 (ties excluded): O=c1c(O)c(-c2ccc(F)cc2)oc2cc(F)c(I)cc12 [Compound 3b]
Not fulfilled

Determine whether this molecule shows SI BChE/AChE lower than 0.8 (ties excluded): O=C(/C=C/c1ccc(F)cc1)c1cc(I)c(F)cc1O [Compound 2b]
Not fulfilled

Determine whether this molecule shows SI BChE/AChE lower than 0.8 (ties excluded): O=c1c(O)c(-c2ccc(Cl)cc2)oc2cc(F)c(I)cc12 [Compound 3c]
Not fulfilled

Determine whether this molecule shows SI BChE/AChE lower than 0.8 (ties excluded): O=c1c(O)c(-c2ccc(Cl)cc2)oc2cc(Br)c(I)cc12 [Compound 3k]
Fulfilled

Determine whether this molecule shows SI BChE/AChE lower than 0.8 (ties excluded): O=c1c(O)c(-c2ccc(F)cc2)oc2cc(Cl)c(I)cc12 [Compound 3f]
Fulfilled

Values compiled from paper PMC6321475.
